// IC50 lookup, one value per entry
targetOrTestSystem: Human Nav1.8 (Homo sapiens)
Construct: expressed in transfected cells; host or cells: HEK293
measurementProtocol: VIPR Assay for Nav1.8 Compounds (FRET membrane potential, deltamethrin opener)
Assay type: cell-based
setupConditions: VIPR FRET membrane potential assay, deltamethrin opener; average of replicates; read-out: Nav1.8 IC50
property: IC50 (µM)

>>> print(df.to_string())
                          chemicalstructure           targetortestsystem  property  quantitativereadout
0  COc1ccc(C(=O)Nc2ccc(-c3cc(Cl)ccc3Cl)c(N)n2)cc1OC  Human Nav1.8 (Homo sapiens)      IC50                  4.1
1    Cc1nonc1C(=O)Nc1ccc(-c2ccccc2Cl)c(N)n1  Human Nav1.8 (Homo sapiens)      IC50                  1.2
2  Cc1nocc1C(=O)Nc1ccc(-c2cc(Cl)ccc2Cl)c(N)n1  Human Nav1.8 (Homo sapiens)      IC50                  1.6
3     COCc1ccccc1-c1ccc(NC(=O)c2conc2C)nc1N  Human Nav1.8 (Homo sapiens)      IC50                  3.5
4  CCOc1ccc(Cl)c(-c2ccc(NC(=O)c3conc3C)nc2N)c1  Human Nav1.8 (Homo sapiens)      IC50                 0.47
5  COc1ccc(Cl)c(-c2ccc(NC(=O)c3ccnn3C(C)C)nc2N)c1  Human Nav1.8 (Homo sapiens)      IC50                 0.96
6   Cc1nocc1C(=O)Nc1ccc(-c2ccc(F)cc2)c(N)n1  Human Nav1.8 (Homo sapiens)      IC50                   20
7  Cn1nncc1C(=O)Nc1ccc(-c2cc(Cl)ccc2Cl)c(N)n1  Human Nav1.8 (Homo sapiens)      IC50                  3.4
8  Cc1nocc1C(=O)Nc1ccc(-c2cc(F)ccc2C(F)(F)F)c(N)n1  Human Nav1.8 (Homo sapiens)      IC50                 0.93

====

targetOrTestSystem: Human Nav1.5 (Homo sapiens)
Construct: expressed in transfected cells; host or cells: HEK293
measurementProtocol: Nav1.5 Assay (VIPR, HEK293 cells)
Format: cell-based
pIC50: −log10 of the molar value.
property: pIC50

>>> df
                          chemicalstructure  property  result
0  COc1cccc(-c2ccc(NC(=O)c3ccnn3C)nc2N)c1OC     pIC50  < 4.49

====

targetOrTestSystem: Human Nav1.8 (Homo sapiens, UniProt Q9Y5Y9)
Construct: expressed in transfected cells; host or cells: HEK293
Sequence (Q9Y5Y9 whole entry): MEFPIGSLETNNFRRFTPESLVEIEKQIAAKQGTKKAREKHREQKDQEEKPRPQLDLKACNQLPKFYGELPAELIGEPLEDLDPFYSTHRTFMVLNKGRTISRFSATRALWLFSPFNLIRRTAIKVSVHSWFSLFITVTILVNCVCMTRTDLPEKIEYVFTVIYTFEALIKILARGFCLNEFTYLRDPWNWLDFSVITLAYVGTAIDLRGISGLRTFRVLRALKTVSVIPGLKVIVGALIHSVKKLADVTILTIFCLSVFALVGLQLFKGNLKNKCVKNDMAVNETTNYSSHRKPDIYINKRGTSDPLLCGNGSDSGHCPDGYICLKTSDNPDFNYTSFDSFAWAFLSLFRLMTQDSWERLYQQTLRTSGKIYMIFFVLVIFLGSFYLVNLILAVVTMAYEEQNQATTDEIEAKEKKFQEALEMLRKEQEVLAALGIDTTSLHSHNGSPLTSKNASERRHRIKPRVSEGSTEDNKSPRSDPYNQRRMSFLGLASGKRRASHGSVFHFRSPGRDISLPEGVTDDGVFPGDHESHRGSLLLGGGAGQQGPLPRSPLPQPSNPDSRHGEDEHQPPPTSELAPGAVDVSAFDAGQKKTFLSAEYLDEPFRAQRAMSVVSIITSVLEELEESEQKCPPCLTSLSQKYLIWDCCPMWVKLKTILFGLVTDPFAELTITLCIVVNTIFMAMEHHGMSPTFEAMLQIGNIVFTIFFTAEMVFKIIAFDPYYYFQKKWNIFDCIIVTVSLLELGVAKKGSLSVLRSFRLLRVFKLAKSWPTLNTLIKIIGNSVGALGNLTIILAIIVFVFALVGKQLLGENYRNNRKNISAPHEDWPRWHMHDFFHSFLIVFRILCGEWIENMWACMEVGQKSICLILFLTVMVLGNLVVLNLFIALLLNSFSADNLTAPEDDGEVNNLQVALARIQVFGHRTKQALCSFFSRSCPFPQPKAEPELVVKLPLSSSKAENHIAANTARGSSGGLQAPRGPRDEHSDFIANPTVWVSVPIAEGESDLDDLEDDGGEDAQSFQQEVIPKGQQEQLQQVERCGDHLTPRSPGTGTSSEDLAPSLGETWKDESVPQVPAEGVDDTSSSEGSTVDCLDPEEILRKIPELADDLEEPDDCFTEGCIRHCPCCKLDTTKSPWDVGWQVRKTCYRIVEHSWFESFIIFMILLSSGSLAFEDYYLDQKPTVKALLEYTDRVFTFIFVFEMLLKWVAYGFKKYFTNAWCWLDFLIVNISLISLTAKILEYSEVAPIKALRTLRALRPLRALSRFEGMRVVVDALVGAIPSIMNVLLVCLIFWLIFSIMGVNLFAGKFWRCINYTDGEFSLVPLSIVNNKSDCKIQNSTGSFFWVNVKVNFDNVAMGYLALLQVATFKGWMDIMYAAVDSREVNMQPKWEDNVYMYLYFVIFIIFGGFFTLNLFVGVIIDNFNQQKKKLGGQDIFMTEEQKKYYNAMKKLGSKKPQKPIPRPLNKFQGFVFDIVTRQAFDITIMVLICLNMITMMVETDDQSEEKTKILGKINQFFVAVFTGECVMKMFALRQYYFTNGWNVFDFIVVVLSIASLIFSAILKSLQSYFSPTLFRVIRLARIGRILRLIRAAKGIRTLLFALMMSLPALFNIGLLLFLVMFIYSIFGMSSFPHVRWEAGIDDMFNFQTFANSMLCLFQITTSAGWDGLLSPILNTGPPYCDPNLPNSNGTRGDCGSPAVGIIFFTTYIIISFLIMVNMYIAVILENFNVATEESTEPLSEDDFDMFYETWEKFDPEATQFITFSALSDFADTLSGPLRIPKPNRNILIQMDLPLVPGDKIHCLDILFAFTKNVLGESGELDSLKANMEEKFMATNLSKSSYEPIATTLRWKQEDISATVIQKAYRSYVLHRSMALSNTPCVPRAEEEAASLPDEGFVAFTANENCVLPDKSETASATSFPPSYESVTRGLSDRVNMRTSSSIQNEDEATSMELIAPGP
measurementProtocol: VIPR Assay for Nav1.8 Compounds (FRET membrane potential, deltamethrin opener)
Type: cell-based
setupConditions: VIPR FRET membrane potential assay, deltamethrin opener; average of replicates; read-out: Nav1.8 IC50
Assign a class from recorded IC50; defined classes: lower = under 2000 nM, middle = from 2000 nM up to 4000 nM, upper = 4000 nM and over

>>> print(df.to_string())
                                    compound                        targetortestsystem  category
 0  Nc1nc(NC(=O)c2ccno2)ccc1-c1cc(Cl)cc(Cl)c1Cl [Example 78]  Human Nav1.8 (Homo sapiens, UniProt Q9Y5Y9)     lower
 1  COc1ccc(OC(F)(F)F)c(-c2ccc(NC(=O)c3ccnn3C)nc2N)c1 [Example 140]  Human Nav1.8 (Homo sapiens, UniProt Q9Y5Y9)     lower
 2  COCc1nocc1C(=O)Nc1ccc(-c2ccccc2OC(F)(F)F)c(N)n1 [Example 88]  Human Nav1.8 (Homo sapiens, UniProt Q9Y5Y9)     lower
 3  COCCOc1ccc(Cl)c(-c2ccc(NC(=O)c3conc3C)nc2N)c1 [Example 170]  Human Nav1.8 (Homo sapiens, UniProt Q9Y5Y9)     lower
 4  Nc1nc(NC(=O)c2ccccc2Cl)ccc1-c1cc(Cl)ccc1Cl [Example 101]  Human Nav1.8 (Homo sapiens, UniProt Q9Y5Y9)    middle
 5  Cc1nocc1C(=O)Nc1ccc(-c2cc(Cl)ccc2OC(F)(F)F)c(N)n1 [Example 32]  Human Nav1.8 (Homo sapiens, UniProt Q9Y5Y9)     lower
 6  Cn1nccc1C(=O)Nc1ccc(-c2cc(F)ccc2OC(F)(F)F)c(N)n1 [Example 116]  Human Nav1.8 (Homo sapiens, UniProt Q9Y5Y9)    middle
 7  CC(C)n1nccc1C(=O)Nc1ccc(-c2cc(OC(F)(F)F)ccc2Cl)c(N)n1 [Example 69]  Human Nav1.8 (Homo sapiens, UniProt Q9Y5Y9)     upper
 8  Cc1nocc1C(=O)Nc1ccc(-c2cc(O)ccc2Cl)c(N)n1 [Example 175]  Human Nav1.8 (Homo sapiens, UniProt Q9Y5Y9)     upper
 9  CCOc1ccc(Cl)c(-c2ccc(NC(=O)c3ccnn3C)nc2N)c1 [Example 150]  Human Nav1.8 (Homo sapiens, UniProt Q9Y5Y9)    middle
10  COCc1oncc1C(=O)Nc1ccc(-c2ccccc2Cl)c(N)n1 [Example 91]  Human Nav1.8 (Homo sapiens, UniProt Q9Y5Y9)    middle
11  COc1cc(Cl)c(Cl)c(-c2ccc(NC(=O)c3ccnn3C)nc2N)c1 [Example 7]  Human Nav1.8 (Homo sapiens, UniProt Q9Y5Y9)     lower
12  CCn1nccc1C(=O)Nc1ccc(-c2cc(OC(F)(F)F)ccc2Cl)c(N)n1 [Example 65]  Human Nav1.8 (Homo sapiens, UniProt Q9Y5Y9)     upper
13  CCn1nccc1C(=O)Nc1ccc(-c2ccccc2Cl)c(N)n1 [Example 53]  Human Nav1.8 (Homo sapiens, UniProt Q9Y5Y9)    middle
14  Cc1nocc1C(=O)Nc1ccc(-c2cc(Cl)cc(Cl)c2Cl)c(N)n1 [Example 28]  Human Nav1.8 (Homo sapiens, UniProt Q9Y5Y9)     lower
15  CC(C)n1nccc1C(=O)Nc1ccc(-c2cc(F)ccc2Cl)c(N)n1 [Example 67]  Human Nav1.8 (Homo sapiens, UniProt Q9Y5Y9)     upper
16  COc1cc(Cl)cc(-c2ccc(NC(=O)c3cnnn3C)nc2N)c1Cl [Example 87]  Human Nav1.8 (Homo sapiens, UniProt Q9Y5Y9)     upper

====

targetOrTestSystem: Human Nav1.5 (Homo sapiens, UniProt Q14524)
Construct: expressed in transfected cells; host or cells: HEK293
Sequence (Q14524 whole entry): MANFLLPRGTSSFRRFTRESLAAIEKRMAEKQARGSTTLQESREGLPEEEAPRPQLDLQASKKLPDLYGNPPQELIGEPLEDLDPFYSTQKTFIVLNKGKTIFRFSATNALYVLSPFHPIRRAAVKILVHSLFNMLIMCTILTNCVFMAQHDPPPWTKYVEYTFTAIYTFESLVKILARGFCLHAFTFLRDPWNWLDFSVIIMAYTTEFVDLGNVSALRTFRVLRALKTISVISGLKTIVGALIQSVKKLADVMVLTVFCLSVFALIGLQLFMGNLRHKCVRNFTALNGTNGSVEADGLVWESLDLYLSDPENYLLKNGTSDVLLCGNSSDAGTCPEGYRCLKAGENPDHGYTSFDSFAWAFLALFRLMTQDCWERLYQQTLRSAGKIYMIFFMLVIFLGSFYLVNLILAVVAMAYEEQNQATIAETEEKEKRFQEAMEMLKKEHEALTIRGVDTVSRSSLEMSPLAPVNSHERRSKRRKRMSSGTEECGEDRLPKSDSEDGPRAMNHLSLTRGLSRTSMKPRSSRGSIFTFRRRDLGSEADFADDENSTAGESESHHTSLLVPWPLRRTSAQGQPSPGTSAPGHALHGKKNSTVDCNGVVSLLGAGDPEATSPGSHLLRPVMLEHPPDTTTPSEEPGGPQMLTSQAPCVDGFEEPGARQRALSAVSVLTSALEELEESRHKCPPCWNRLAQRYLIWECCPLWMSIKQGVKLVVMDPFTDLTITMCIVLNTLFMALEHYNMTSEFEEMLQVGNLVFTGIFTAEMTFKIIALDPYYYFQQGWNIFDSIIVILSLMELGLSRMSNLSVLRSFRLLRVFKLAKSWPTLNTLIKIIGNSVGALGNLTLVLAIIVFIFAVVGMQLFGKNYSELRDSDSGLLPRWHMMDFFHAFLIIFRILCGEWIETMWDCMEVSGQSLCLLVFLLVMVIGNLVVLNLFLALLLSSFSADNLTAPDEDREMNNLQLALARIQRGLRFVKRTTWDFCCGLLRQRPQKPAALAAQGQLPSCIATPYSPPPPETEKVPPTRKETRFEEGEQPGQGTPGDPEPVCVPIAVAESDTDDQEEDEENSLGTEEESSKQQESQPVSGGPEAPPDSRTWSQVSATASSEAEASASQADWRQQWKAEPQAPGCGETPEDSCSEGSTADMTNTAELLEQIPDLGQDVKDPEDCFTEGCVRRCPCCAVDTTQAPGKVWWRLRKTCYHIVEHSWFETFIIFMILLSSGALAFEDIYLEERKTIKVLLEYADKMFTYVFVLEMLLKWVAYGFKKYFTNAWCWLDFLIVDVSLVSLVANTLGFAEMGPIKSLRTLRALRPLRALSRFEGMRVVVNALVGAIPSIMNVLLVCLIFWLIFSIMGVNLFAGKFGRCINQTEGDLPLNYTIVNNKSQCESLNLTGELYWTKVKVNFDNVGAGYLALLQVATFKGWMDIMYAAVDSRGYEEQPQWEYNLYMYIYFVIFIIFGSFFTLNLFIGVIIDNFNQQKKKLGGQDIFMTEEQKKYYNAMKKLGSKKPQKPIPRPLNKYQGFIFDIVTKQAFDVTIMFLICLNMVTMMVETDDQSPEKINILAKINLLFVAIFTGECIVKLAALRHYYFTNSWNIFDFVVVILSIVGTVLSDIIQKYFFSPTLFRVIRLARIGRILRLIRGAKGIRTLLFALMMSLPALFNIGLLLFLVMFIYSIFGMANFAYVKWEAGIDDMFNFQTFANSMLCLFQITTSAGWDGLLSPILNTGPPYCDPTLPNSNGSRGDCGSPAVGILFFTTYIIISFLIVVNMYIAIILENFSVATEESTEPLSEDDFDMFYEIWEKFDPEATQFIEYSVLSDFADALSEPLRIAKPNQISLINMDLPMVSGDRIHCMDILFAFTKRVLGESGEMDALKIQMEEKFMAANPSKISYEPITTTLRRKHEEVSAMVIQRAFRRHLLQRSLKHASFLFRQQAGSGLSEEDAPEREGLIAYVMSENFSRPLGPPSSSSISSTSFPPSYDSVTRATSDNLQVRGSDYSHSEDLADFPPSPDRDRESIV
measurementProtocol: Nav1.5 Assay (VIPR, HEK293 cells)
Type: cell-based
setupConditions: HEK293 cells expressing Human Nav1.5; average of replicates; read-out: Nav1.5 IC50
pIC50: −log10 of the molar value.
property: pIC50

>>> df
                                   compound  property  censoringsign  quantitativereadout
0  COc1ccc(Cl)c(-c2ccc(NC(=O)c3conc3C(F)(F)F)nc2N)c1     pIC50              =                 4.85
1  CCCOc1ccc(F)cc1-c1ccc(NC(=O)c2ccnn2C)nc1N     pIC50              =                 4.57
2  COc1ccc(Cl)c(-c2ccc(NC(=O)c3ccnn3C)nc2N)c1     pIC50              <                 4.49
3   COCCOc1ccccc1-c1ccc(NC(=O)c2ccnn2C)nc1N     pIC50              <                 4.49
4  Cc1nocc1C(=O)Nc1ccc(-c2cc(F)ccc2OC2CCOC2)c(N)n1 (stereo not drawn)     pIC50              <                 4.49
5   Cc1nocc1C(=O)Nc1ccc(-c2ccc(F)cc2)c(N)n1     pIC50              =                 4.51
6  CCn1nccc1C(=O)Nc1ccc(-c2cc(OC)ccc2Cl)c(N)n1     pIC50              =                 4.80
7  COCCOc1ccc(Cl)c(-c2ccc(NC(=O)c3conc3C)nc2N)c1     pIC50              =                 4.68
8  COCCOc1ccc(F)cc1-c1ccc(NC(=O)c2conc2C)nc1N     pIC50              <                 4.49

====

targetOrTestSystem: Human Nav1.5 (Homo sapiens, UniProt Q14524)
Construct: expressed in transfected cells; host or cells: HEK293
measurementProtocol: Nav1.5 Assay (VIPR, HEK293 cells)
Type: cell-based
setupConditions: HEK293 cells expressing Human Nav1.5; average of replicates; read-out: Nav1.5 IC50
pIC50: −log10 of the molar value.
Property: pIC50; scope: individual compounds
property: pIC50

                          chemicalstructure  result
0  Cn1nccc1C(=O)Nc1ccc(-c2ccccc2OC(F)F)c(N)n1  < 4.49
1  COCc1nocc1C(=O)Nc1ccc(-c2ccccc2Cl)c(N)n1  < 4.49
2  COCc1nocc1C(=O)Nc1ccc(-c2cc(F)ccc2Cl)c(N)n1  < 4.49
3  Cc1n[nH]cc1C(=O)Nc1ccc(-c2ccccc2OC(F)(F)F)c(N)n1  < 4.49
4  COc1cccc(-c2ccc(NC(=O)c3conc3C)nc2N)c1OC  < 4.49
5  Cc1nocc1C(=O)Nc1ccc(-c2cc(F)ccc2O)c(N)n1  < 4.49
6   Nc1nc(NC(=O)c2cnon2)ccc1-c1cc(Cl)ccc1Cl  < 4.49
7  COCCOc1ccc(F)cc1-c1ccc(NC(=O)c2ccnn2C)nc1N  < 4.49
